- Tested on: T47D (PI3Kα-H1047R) cell line
- measurement-notes: HTRF phospho-AKT(S473) cell assay in T47D cells
- Assay type: cell-based, human
- measurement-setup: Homo sapiens; HTRF phospho-AKT(S473), T47D (PI3Kα-H1047R) cells, 2 hours compound incubation
- Protocol: Compounds in the present disclosure were tested in a cell based HTRF phospho-AKT(S473) (CisBio/Revvity) assay in human breast cancer cell lines as a measurement of PIK3CA activity through measuring AKT, a downstream effector. The activity of mutant PI3Kα-H1047R and PI3Kα-Wild Type was measured in the T47D (PI3Kα-H1047R) and SKBR3 (PI3Kα-Wild Type) cell lines, respectively. […] The following day, plates were centrifuged for 1 minute at 1000 rpm, and read on a PHERAstar plate reader. […]
Parameter: IC50. Scope: all listed entries.

Recorded results for 4 molecules are shown here.
Cc1cc([C@@H](C)Nc2ccc(Cl)nc2C(=O)NS(C)(=O)=O)c2nc(N3C[C@@H]4[C@H](C3)[C@H]4c3cnc(C4CC4)nc3)n(C)c(=O)c2c1 | 250 to 500 nM
COc1cc([C@H]2[C@@H]3CN(c4nc5c([C@@H](C)Nc6ccc(Cl)nc6C(=O)NS(C)(=O)=O)cc(C)cc5c(=O)n4C)C[C@@H]32)n[nH]1 | 250 to 500 nM
Cc1cc([C@@H](C)Nc2ccc(Cl)nc2C(=O)NS(C)(=O)=O)c2nc(N3Cc4cn(Cc5ccccc5)nc4C3)n(C)c(=O)c2c1 | < 250 nM
Cc1cc([C@@H](C)Nc2ccc(Cl)nc2C(=O)NS(C)(=O)=O)c2nc(N3C[C@H]4C[C@@H]3CN4c3ccccn3)n(C)c(=O)c2c1 | 500 to 1000 nM

// moving on: another record for IC50
INPUT: What reported IC50 corresponds to Cc1cc([C@@H](C)Nc2ccc(Cl)nc2C(=O)NS(C)(=O)=O)c2nc(N3C[C@@H]4[C@H](C3)[C@H]4c3cc(C)n(C4CC4)n3)n(C)c(=O)c2c1 on T47D (PI3Kα-H1047R) cell line?
OUTPUT: 250 to 500 nM

This collection of values is drawn from patent US12281122B1.
